Field: Cmax. Provide a value for each of the molecules that follow.
assay: Single dose oral pharmacokinetic study; design: species or system mice; conditions: mouse, in vivo, po, 30 mg/kg

Known results for molecules:
C=C(C)[C@@H]1CC[C@]2(C(=O)N3CCC[C@H]3c3nc(C(C)(C)C)cn3CCN(C)C)CC[C@]3(C)[C@H](CC[C@@H]4[C@@]5(C)CC[C@H](OC(=O)[C@H]6C[C@@H](C(=O)O)C6(C)C)C(C)(C)[C@@H]5CC[C@]43C)[C@@H]12 = 18100 ng/mL
C=C(C)[C@@H]1CC[C@]2(C(=O)N3CCC[C@H]3c3nc(-c4ccncc4)cn3CCN(C)C)CC[C@]3(C)[C@H](CC[C@@H]4[C@@]5(C)CC[C@H](OC(=O)[C@H]6C[C@@H](C(=O)O)C6(C)C)C(C)(C)[C@@H]5CC[C@]43C)[C@@H]12 = 9080 ng/mL

Next item in the queue.
Reported Cmax ( C=C(C)[C@@H]1CC[C@]2(C(=O)N3C[C@H](OCCOC)C[C@H]3c3nc(-c4cccc(F)c4)cn3CCN3CCCC3)CC[C@]3(C)[C@H](CC[C@@H]4[C@@]5(C)CC[C@H](OC(=O)[C@H]6C[C@@H](C(=O)O)C6(C)C)C(C)(C)[C@@H]5CC[C@]43C)[C@@H]12 ) = 7300 ng/mL

* * *

test: Cyto-toxicity, MTT assay; assay type: cell-based; settings: 1 uM, read-out: Cytotoxicity % viability
Please provide measured viability at 4 days, 1 µM for the entries that follow.
Answers are plain numbers, in %.

Batch: viability at 4 days, 1 µM for all items listed.
1. C=C(C)[C@@H]1CC[C@]2(C(=O)N3CCC[C@H]3c3nc4ccccc4n3CCN(C)C)CC[C@]3(C)[C@H](CC[C@@H]4[C@@]5(C)CC[C@H](OC(=O)[C@H]6C[C@@H](C(=O)O)C6(C)C)C(C)(C)[C@@H]5CC[C@]43C)[C@@H]12 [Compound 29]
2. C=C(C)[C@@H]1CC[C@]2(C(=O)N3C[C@H](OCCOC)C[C@H]3c3nc(-c4ccccc4)cn3CCN3CCCC3)CC[C@]3(C)[C@H](CC[C@@H]4[C@@]5(C)CC[C@H](OC(=O)[C@H]6C[C@@H](C(=O)O)C6(C)C)C(C)(C)[C@@H]5CC[C@]43C)[C@@H]12 [Compound 27]
3. C=C(C)[C@@H]1CC[C@]2(C(=O)N3CCC[C@H]3c3nc4ccccc4n3CCN3CCCC3)CC[C@]3(C)[C@H](CC[C@@H]4[C@@]5(C)CC[C@H](OC(=O)[C@H]6C[C@@H](C(=O)O)C6(C)C)C(C)(C)[C@@H]5CC[C@]43C)[C@@H]12 [Compound 30]
4. C=C(C)[C@@H]1CC[C@]2(C(=O)N3C[C@H](OCCOC)C[C@H]3c3nc(-c4cccc(F)c4)cn3CCN3CCCC3)CC[C@]3(C)[C@H](CC[C@@H]4[C@@]5(C)CC[C@H](OC(=O)[C@H]6C[C@@H](C(=O)O)C6(C)C)C(C)(C)[C@@H]5CC[C@]43C)[C@@H]12 [Compound 28]

output:
5
8
5
6

* * *

Task for the reader: assign each of the following compounds its reported viability at 4 days, 100 µM.
assay: Cyto-toxicity, MTT assay; assay type: cell-based; conditions: 100 μM, read-out: Cytotoxicity % viability
Give bare numbers, in %.

List reported viability at 4 days, 100 µM for each of these compounds:
1. C=C(C)[C@@H]1CC[C@]2(C(=O)N3C[C@H](OCCOC)C[C@H]3c3nc(-c4ccccc4)cn3CCC(C)C)CC[C@]3(C)[C@H](CC[C@@H]4[C@@]5(C)CC[C@H](OC(=O)[C@H]6C[C@@H](C(=O)O)C6(C)C)C(C)(C)[C@@H]5CC[C@]43C)[C@@H]12 [Compound 26]
2. C=C(C)[C@@H]1CC[C@]2(C(=O)N3CCC[C@H]3c3nc(-c4cccc(F)c4)cn3CCN(C)C)CC[C@]3(C)[C@H](CC[C@@H]4[C@@]5(C)CC[C@H](OC(=O)[C@H]6C[C@@H](C(=O)O)C6(C)C)C(C)(C)[C@@H]5CC[C@]43C)[C@@H]12 [Compound 12]
3. C=C(C)[C@@H]1CC[C@]2(C(=O)N3CCC[C@H]3c3nc(-c4ccccc4)cn3CCP(=O)(O)O)CC[C@]3(C)[C@H](CC[C@@H]4[C@@]5(C)CC[C@H](OC(=O)[C@H]6C[C@@H](C(=O)O)C6(C)C)C(C)(C)[C@@H]5CC[C@]43C)[C@@H]12 [Compound 23]

output:
1. 9
2. 5
3. 66
